# growth inhibition values compiled below
- Protocol Summary: NCI Yeast Anticancer Drug Screen. Data for the mlh1 strain (AID 171);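 also: 0% = growth of vehicle-treated control cultures of the same strain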
- Test Context: S. cerevisiae mlh1 strain growth inhibition; at 1.2 µM; hits give high values
- Procedure: Growth inhibition of yeast strains with defined genetic alterations is measured as a screen for potential anti-cancer activity. Selected strains with alterations in DNA damage repair or cell cycle control were exposed to compounds and growth inhibition was measured relative to vehicle treated controls. The strain used in this assay is mlh1
The panel holds about 79,000 compounds, 15% with a hit somewhere; the sample as a whole holds those more often.

[
  {
    "Compound": "O=C(Cc1ccccc1)NNc1nc(NNC(=O)c2ccncc2)nc(Nc2ccc([N+](=O)[O-])cc2)n1",
    "growth inhibition, %": -3
  },
  {
    "Compound": "CC1(C)C(O)OC(O)C1(C)C (stereo not drawn)",
    "growth inhibition, %": 0
  },
  {
    "Compound": "CCc1c(Cl)c(C)c(Cl)c(O)c1Cl",
    "growth inhibition, %": -12
  },
  {
    "Compound": "Fc1ccc(Nc2ccc3ccccc3c2)cc1",
    "growth inhibition, %": 0
  },
  {
    "Compound": "CCCCS(=O)(=O)Nc1ccc(Nc2c3ccccc3nc3ccccc23)c(OC)c1",
    "growth inhibition, %": -58
  },
  {
    "Compound": "NC(=S)N1N=C2c3ccccc3CC[C@@H]2[C@@H]1c1ccccc1",
    "growth inhibition, %": -31
  },
  {
    "Compound": "CCCN=Cc1cc(Cc2ccc(O)c(C=NCCC)c2)ccc1O",
    "growth inhibition, %": 60
  },
  {
    "Compound": "CCCCCCCCNCCCCCCCC",
    "growth inhibition, %": 6
  }
]

---

# growth inhibition values compiled below
- Protocol Summary: NCI Yeast Anticancer Drug Screen. Data for the rad14 strain (AID 159);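 also: 0% = growth of vehicle-treated control cultures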
- Test Context: S. cerevisiae rad14 strain growth inhibition; at 3.7 µM; hits give high values
About 79,000 compounds went through this panel and 15% of them were active in at least one assay; those are over-represented in the sample as a whole.
Value Kind: growth inhibition (%)

[
  {
    "Compound": "O=C1NC(c2cccc(OCc3ccccc3)c2)Nc2ccccc21 (stereo unspecified)",
    "Value Kind": "growth inhibition",
    "Result Units": "%",
    "Value Measured": -14
  },
  {
    "Compound": "O=C1C[C@H]2[C@H](c3ccc(Br)cc3)[C@H]3C(=O)c4ccccc4NC(=O)[C@@H]3[C@@]2(O)c2ccccc2N1",
    "Value Kind": "growth inhibition",
    "Result Units": "%",
    "Value Measured": 9
  },
  {
    "Compound": "O=[N+]([O-])c1cc[n+]([O-])c(Cl)c1",
    "Value Kind": "growth inhibition",
    "Result Units": "%",
    "Value Measured": 5
  },
  {
    "Compound": "CCN(CC)CCC(=O)Nc1ccc2sc3ccccc3c(=O)c2n1",
    "Value Kind": "growth inhibition",
    "Result Units": "%",
    "Value Measured": 5
  },
  {
    "Compound": "O=C1CC(C(O)(C(F)(F)F)C(F)(F)Cl)CCC1C(O)(C(F)(F)F)C(F)(F)Cl (stereo unspecified)",
    "Value Kind": "growth inhibition",
    "Result Units": "%",
    "Value Measured": 50
  },
  {
    "Compound": "O=C1c2ccccc2C(=O)c2c(O)c(NCCNCCO)cc(O)c21",
    "Value Kind": "growth inhibition",
    "Result Units": "%",
    "Value Measured": -2
  },
  {
    "Compound": "O=C1C(=O)c2cccc([N+](=O)[O-])c2-c2ccccc21",
    "Value Kind": "growth inhibition",
    "Result Units": "%",
    "Value Measured": 20
  },
  {
    "Compound": "O=C1SS(=O)c2ccccc21 (stereo unspecified)",
    "Value Kind": "growth inhibition",
    "Result Units": "%",
    "Value Measured": -3
  },
  {
    "Compound": "O=C(CCCN1CCC(Nc2ccc(F)cc2)(c2nnnn2C2CCCCC2)CC1)c1ccc(F)cc1",
    "Value Kind": "growth inhibition",
    "Result Units": "%",
    "Value Measured": -8
  },
  {
    "Compound": "O=C(Nc1ccc(Cl)cc1)c1cc2cc(N=Nc3ccccc3Cl)ccc2oc1=O",
    "Value Kind": "growth inhibition",
    "Result Units": "%",
    "Value Measured": 5
  },
  {
    "Compound": "O=[N+]([O-])c1cn[n+]([O-])c2ccccc12",
    "Value Kind": "growth inhibition",
    "Result Units": "%",
    "Value Measured": 43
  }
]

---

# growth inhibition values compiled below
- Protocol Summary: NCI Yeast Anticancer Drug Screen. Data for the rad50 strain (AID 155);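 also: 0% = growth of vehicle-only cultures of the same strain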
- Test Context: S. cerevisiae rad50 strain growth inhibition; at 50.0 µM; hits give high values
Compounds without any hit were thinned out: in the full panel of roughly 79,000, 15% have a hit. Activity calls are given as the source filed them. Cut-off read from the data, not from the text of the source: active = growth inhibition above about 70%; inactive = the rest.

[
  {
    "Compound": "NC(=S)N1N=C2c3ccccc3CC[C@@H]2[C@@H]1c1ccccc1",
    "growth inhibition": "75.6% (active)"
  },
  {
    "Compound": "O=C(NCCCCN(CCCNC(=O)C(F)(F)F)Cc1ccccc1)C(F)(F)F",
    "growth inhibition": "-5.5% (inactive)"
  },
  {
    "Compound": "CCCCCCCSCC1C(=O)C23C(O)C1CCC2C12COC3(O)C(O)C1C(C)(C)CCC2O (stereo not given)",
    "growth inhibition": "87.5% (active)"
  },
  {
    "Compound": "CC1(C)CC(=O)C(C=NC(=S)C(N)=S)=C(O)C1",
    "growth inhibition": "15.5% (inactive)"
  },
  {
    "Compound": "O=C(O)c1cc2c(cc1S(=O)(=O)O)C1C(C3C2C2(Cl)C(Cl)=C(Cl)C3(Cl)C2(Cl)Cl)C2(Cl)C(Cl)=C(Cl)C1(Cl)C2(Cl)Cl (stereo not given)",
    "growth inhibition": "96.2% (active)"
  },
  {
    "Compound": "COc1cccc(/C=C2\\S/C(=N/Nc3nc(-c4ccc([N+](=O)[O-])cc4)cs3)NC2=O)c1O",
    "growth inhibition": "97% (active)"
  },
  {
    "Compound": "Cc1ccc(Nc2n[nH]c(=S)s2)c(C)c1",
    "growth inhibition": "56.3% (inactive)"
  },
  {
    "Compound": "CC(/C=C/c1ccc([N+](=O)[O-])o1)=N/N1CC(CN2CCOCC2)OC1=O (stereo not given)",
    "growth inhibition": "91.8% (active)"
  },
  {
    "Compound": "COc1ccc(N=c2cc(-c3ccccc3)oc3ccccc23)cc1",
    "growth inhibition": "57.5% (inactive)"
  },
  {
    "Compound": "CNC(=O)OCc1c(COC(=O)NC)c(C)n(-c2ccc(Br)cc2)c1C",
    "growth inhibition": "30.4% (inactive)"
  }
]

---

- Protocol Summary: NCI Yeast Anticancer Drug Screen. Data for the mec2-1 strain (AID 157)
- Test Context: S. cerevisiae mec2-1 strain, at 100.0 µM
The panel holds about 79,000 compounds, 15% with a hit somewhere; the sample as a whole holds those more often. Calls of active or inactive are those of the source. No stated cut-off is given here; in the data, active means growth inhibition above about 70%; inactive means the rest.
Possible outcomes: 1 (active), 0 (inactive)

[
  {
    "Molecule": "O=c1cccccc1[O-].O=c1cccccc1[O-].O=c1cccccc1[O-].[Eu+3]",
    "Qualitative Label": 1
  },
  {
    "Molecule": "CC1(C2CC2)C(C#N)(C#N)C1(C#N)C#N",
    "Qualitative Label": 1
  },
  {
    "Molecule": "O=S(=O)(NC1CCCC(c2ccccc2)C1)c1ccccc1 (stereo not drawn)",
    "Qualitative Label": 1
  },
  {
    "Molecule": "CCC(C)COC(=O)Nc1cccc(Cl)c1 (stereo not drawn)",
    "Qualitative Label": 1
  },
  {
    "Molecule": "CC(/C=C/c1ccc([N+](=O)[O-])o1)=N/N1CC(CN2CCOCC2)OC1=O (stereo not drawn)",
    "Qualitative Label": 1
  },
  {
    "Molecule": "CCCCCCCSCC1C(=O)C23C(O)C1CCC2C12COC3(O)C(O)C1C(C)(C)CCC2O (stereo not drawn)",
    "Qualitative Label": 1
  },
  {
    "Molecule": "O=C1C(=O)N(c2ccccc2)[C@@]2(c3ccccc3)C(=Nc3ccccc3)OC(c3ccccc3)=C12",
    "Qualitative Label": 0
  },
  {
    "Molecule": "CN(C)CCNc1ccc2ncn3c4ccc(O)cc4c(=O)c1c23",
    "Qualitative Label": 0
  },
  {
    "Molecule": "Nc1ccc(/C=C/c2ccc3cccnc3c2)cc1",
    "Qualitative Label": 0
  },
  {
    "Molecule": "CSC(=S)N/N=C/c1ccccc1",
    "Qualitative Label": 0
  },
  {
    "Molecule": "C[C@H](CCC1=NC(C)(C)CO1)C1CCC2[C@@H]3C(O)C[C@@H]4CC(O)CC[C@]4(C)C3CC[C@@]21C (stereo partly drawn)",
    "Qualitative Label": 1
  },
  {
    "Molecule": "CC(C)Cc1ncc(CCCN=C(N)N)[nH]c1=O",
    "Qualitative Label": 0
  },
  {
    "Molecule": "CN(C)CC1=Nc2cccc3cccc(c23)N1",
    "Qualitative Label": 1
  },
  {
    "Molecule": "CCCNCC(=O)O[C@]1(CC)C(=O)OCc2c1cc1n(c2=O)Cc2cc3ccccc3nc2-1",
    "Qualitative Label": 1
  },
  {
    "Molecule": "CCCCS/C(=C(/C#N)C(N)=O)c1cc2c([nH]1)CCCC2",
    "Qualitative Label": 0
  },
  {
    "Molecule": "O=NC1c2cccc3cccc(c23)C1N=O (stereo not drawn)",
    "Qualitative Label": 0
  },
  {
    "Molecule": "Cc1cccc2c(NCCCN(C)C)c3c([N+](=O)[O-])ccc(C)c3nc12",
    "Qualitative Label": 1
  },
  {
    "Molecule": "COc1c2c(c3c(c1CCC(=O)O)OC(C)(C)C=C3)OC(C)(C)C=C2",
    "Qualitative Label": 1
  },
  {
    "Molecule": "O=C(Cc1ccccc1)NN1C(=O)C(Cl)C1c1cc(Br)cc(Br)c1O (stereo not drawn)",
    "Qualitative Label": 1
  },
  {
    "Molecule": "Cc1ccnc2c(O)cccc12",
    "Qualitative Label": 1
  },
  {
    "Molecule": "O=C(O)/C=C\\C(=O)Nc1ccc2c(c1)Cc1cc(Cl)ccc1-2",
    "Qualitative Label": 0
  },
  {
    "Molecule": "CN(C)/C(=N/C(=S)Nc1ccccc1)SCc1ccccc1",
    "Qualitative Label": 0
  },
  {
    "Molecule": "CCOC(=O)CC1(C)/C(=N\\Nc2ccc([N+](=O)[O-])cc2[N+](=O)[O-])CCC2C1CCC1(C)C(C(C)CCCC(C)C)CCC21 (stereo not drawn)",
    "Qualitative Label": 0
  },
  {
    "Molecule": "O=C1/C(=C/c2ccc(Cl)c(Cl)c2)CNC/C1=C\\c1ccc(Cl)c(Cl)c1",
    "Qualitative Label": 1
  },
  {
    "Molecule": "O=S(=O)(c1ccccc1)N1CN2CN(C1)CN(S(=O)(=O)c1ccccc1)C2",
    "Qualitative Label": 0
  },
  {
    "Molecule": "O=C1c2ccccc2C(=O)c2c(O)c(NCCNCCO)cc(O)c21",
    "Qualitative Label": 1
  },
  {
    "Molecule": "CCN(CC)CCCNc1ccc([N+](=O)[O-])c2nc3ccc(OC)cc3c(NCCCN(CC)CC)c12",
    "Qualitative Label": 0
  },
  {
    "Molecule": "O=C1NC(c2cccc(OCc3ccccc3)c2)Nc2ccccc21 (stereo not drawn)",
    "Qualitative Label": 0
  }
]
